Target: CTD (C-terminal domain) of SOQ1 (SUPPRESSOR OF QUENCHING1), recombinant (Arabidopsis thaliana)
Assay: MST
ASSAY ENDPOINT: Kd
Write the numeric value and follow it with the unit.

Return value of Kd for input Trx-like domain of SOQ1 (SUPPRESSOR OF QUENCHING1), recombinant (domain or fragment) , no commentary.
8.76 µM
